- System: KARN cells (Jurkat 2C4)
- PROTOCOL_DETAILS: cells
- Format: cell-based
- SETUP_CONDITIONS: Homo sapiens, Jurkat, read-out: Karn EC50 (nM) 5% NHS, 5% normal human serum; luciferase induction, 100% = 2 μM SAHA
EC50 values by entry
// note: answer is a bare numeric in nM

| COMPOUND | UNIT_INFO | RESULT |
| --- | --- | --- |
| CCC(=O)CCCCC[C@H](NC(=O)C1=NOC2(CCN(C)CC2)C1)c1ncc(-c2ccc(-c3ccccn3)cc2OC)o1 [Compound 391] | nM | 541 |
| CCC(=O)CCCCC[C@H](NC(=O)C1=NOC2(CCN(C)CC2)C1)c1ncc(-c2ccccc2)[nH]1 [Compound 382] | nM | 1070 |
| CCC(=O)CCCCCC(NC(=O)C1CCC2(CC1)OC(=O)c1cnccc12)c1nnc(-c2cc3ccccc3nc2OC)o1 (stereo not drawn) [Compound 364] | nM | 4310 |
| CCC(=O)CCCCC[C@H](NC(=O)CC1CC2(C1)CN(C)C2)c1ncc(-c2cc3ccccc3nc2OC)[nH]1 [Compound 314] | nM | 811 |
| CCC(=O)CCCCC[C@H](NC(=O)C1CC12CC1CCC(C2)N1C)c1ncc(-c2ccc3ncccc3c2)[nH]1 (single isomer, unassigned) [Compound 242] | nM | 2770 |
| CCC(=O)CCCCC[C@H](NC(=O)[C@H]1CC12CCN(CC1CC1)CC2)c1ncc(-c2cc3ccn(C)c(=O)c3cc2OC)o1 [Compound 229] | nM | 29 |

compound CCC(=O)CCCCC[C@H](NC(=O)C1CCC2(CC1)CN(C(C)C)C2)c1ncc(-c2cc3ccccc3nc2OC)[nH]1 [Compound 272] , EC50 observed: 721

compound CCC(=O)CCCCC[C@H](NC(=O)C1CC12CCN(CC)CC2)c1nc(-c2ccc(F)cc2)[nH]c1-c1ccsc1 (stereo partly drawn) [Compound 250] , EC50 observed: 4100
